Each recorded value in this set is attributed to paper doi:10.1101/2025.11.18.689095.

# target: human Tom70 (residues 108–608) (Homo sapiens, UniProt O94826)
# Construct: human Tom70 (residues 108–608); Avi tag (N, cleaved yes); His6 tag (N, cleaved yes); (GGS)5 linker and TEV cleavage site (N, cleaved yes); made in house; host or cells: E. coli BL21 (DE3)
# Sequence (O94826 108-608): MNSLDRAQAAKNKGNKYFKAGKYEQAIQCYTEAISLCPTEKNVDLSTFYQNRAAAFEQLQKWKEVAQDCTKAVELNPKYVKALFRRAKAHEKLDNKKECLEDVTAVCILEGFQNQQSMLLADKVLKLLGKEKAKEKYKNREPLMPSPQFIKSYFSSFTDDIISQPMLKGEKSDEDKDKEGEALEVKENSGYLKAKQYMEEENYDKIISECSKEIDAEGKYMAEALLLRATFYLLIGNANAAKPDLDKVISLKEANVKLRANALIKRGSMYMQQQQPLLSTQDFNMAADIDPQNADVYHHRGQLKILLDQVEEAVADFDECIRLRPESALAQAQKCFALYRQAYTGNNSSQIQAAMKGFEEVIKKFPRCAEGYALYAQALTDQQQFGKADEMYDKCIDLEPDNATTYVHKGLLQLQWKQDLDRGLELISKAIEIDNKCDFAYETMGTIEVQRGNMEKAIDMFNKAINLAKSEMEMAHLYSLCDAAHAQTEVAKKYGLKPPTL
# assay: ITC, Hsp90EEVD peptide binding to free Tom70
# settings: 20°C, pH 8, 150 mM NaCl, 2 mM TCEP, 10% glycerol, Hsp90EEVD (400–500 μM) into Tom70 (30 μM), mean ± SD of 3 measurements, read-out: KD of Hsp90EEVD to Tom70 alone
pKd: −log10 of the molar value. Where no end group is shown, it is not given here.
measurement kind: pKd

>>> measured_number("YDTSRMEEVD [Hsp90EEVD]")
4.92
